- Tested on: 439559-082-T-J2-PDC complex spheroid growth
- assaySummary: Anticancer human tumor 439559-082-T-J2-PDC patient-derived colon adenocarcinoma cell line growth inhibition [Asc]
- assayContext: second compound 0.01 µM; first compound 0.0316 µM; stronger effect = lower value
Could you please report measured viability, T/C for the items listed next?

compound	assayedTarget	measuredProperty	result
C#Cc1c(F)ccc2cc(O)cc(-c3ncc4c(N5CC6CCC(C5)N6)nc(OCC56CCCN5CC(F)C6)nc4c3F)c12 (configuration not stated) + CNC(C)C(=O)NC1CN(S(=O)(=O)c2cccc(S(=O)(=O)N3CCC4CCC(C(=O)NC(c5ccccc5)c5ccccc5)N4C(=O)C(NC(=O)C(C)NC)C3)c2)CCC2CCC(C(=O)NC(c3ccccc3)c3ccccc3)N2C1=O	439559-082-T-J2-PDC complex spheroid growth	viability, T/C	104%

Shifting focus to the compound that follows.
Endpoint output: viability, T/C of COc1c(OCCCN2CCOCC2)ccc2c3n(c(=NC(=O)c4cnc(N)nc4)nc12)CCN3 + CNC(C)C(=O)NC1CN(S(=O)(=O)c2cccc(S(=O)(=O)N3CCC4CCC(C(=O)NC(c5ccccc5)c5ccccc5)N4C(=O)C(NC(=O)C(C)NC)C3)c2)CCC2CCC(C(=O)NC(c3ccccc3)c3ccccc3)N2C1=O . Value?
99.1%

----------
Hi there, I'd appreciate the recorded viability, T/C for every entry that follows.
- Test system: 439559-082-T-J2-PDC complex spheroid growth
- assaySummary: Anticancer human tumor 439559-082-T-J2-PDC cell line growth inhibition [Asc];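 further: spheroids exposed to agents for 7 days starting day 3 after seeding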;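 on viability, T/C: percent of DMSO vehicle control viability with 100% = vehicle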
- assayContext: second compound 3 µM; first compound 10 µM; stronger effect = lower value

Worked examples follow.
molecule	result
C#Cc1c(F)ccc2cc(O)cc(-c3ncc4c(N5CC6CCC(C5)N6)nc(OCC56CCCN5CC(F)C6)nc4c3F)c12 (centres undefined) + CCN1C(C(=O)NC23CCC(C(=O)O)(CC2)CC3)C(c2cccc(Cl)c2F)C2(C(=O)Nc3cc(Cl)ccc32)C12CCCCC2	37.8%
O=C(c1cc(Cc2n[nH]c(=O)c3ccccc23)ccc1F)N1CCN(C(=O)C2CC2)CC1 + CCN1C(C(=O)NC23CCC(C(=O)O)(CC2)CC3)C(c2cccc(Cl)c2F)C2(C(=O)Nc3cc(Cl)ccc32)C12CCCCC2	88.8%
C=C(F)C(=O)N1CCN(c2nc(OCC3CCCN3C)nc3c2CCN(c2cccc4cccc(Cl)c24)C3)CC1CC#N (centres undefined) + CCN1C(C(=O)NC23CCC(C(=O)O)(CC2)CC3)C(c2cccc(Cl)c2F)C2(C(=O)Nc3cc(Cl)ccc32)C12CCCCC2	10.2%

Please turn your attention to the following entry.
Query for 439559-082-T-J2-PDC complex spheroid growth: what viability, T/C does the record show for C=CC(=O)N1CCN(c2nc(=O)n(-c3c(C)ccnc3C(C)C)c3nc(-c4c(O)cccc4F)c(F)cc23)C(C)C1 (centres undefined) + CCN1C(C(=O)NC23CCC(C(=O)O)(CC2)CC3)C(c2cccc(Cl)c2F)C2(C(=O)Nc3cc(Cl)ccc32)C12CCCCC2 ?
91.8%

----------
Field: viability, T/C. Provide a value for each of the molecules that follow.
- Test system: 439559-082-T-J2-PDC complex spheroid growth
- assaySummary: Anticancer human tumor 439559-082-T-J2-PDC cell line growth inhibition [Asc];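 further: spheroids exposed to agents for 7 days starting day 3 after seeding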;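 on viability, T/C: percent of DMSO vehicle control viability with 100% = vehicle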
- assayContext: second compound 3 µM; first compound 0.0316 µM; stronger effect = lower value
Give bare numbers, in %.

Some molecules with recorded viability, T/C:
molecule	unitsText	viability, T/C
CCN1CCN(Cc2ccc(Nc3ncc(F)c(-c4cc(F)c5nc(C)n(C(C)C)c5c4)n3)nc2)CC1 + CCN1C(C(=O)NC23CCC(C(=O)O)(CC2)CC3)C(c2cccc(Cl)c2F)C2(C(=O)Nc3cc(Cl)ccc32)C12CCCCC2	%	105
O=C(c1cc(Cc2n[nH]c(=O)c3ccccc23)ccc1F)N1CCN(C(=O)C2CC2)CC1 + CCN1C(C(=O)NC23CCC(C(=O)O)(CC2)CC3)C(c2cccc(Cl)c2F)C2(C(=O)Nc3cc(Cl)ccc32)C12CCCCC2	%	90.5
O=C(c1ccc(F)c(F)c1Nc1ccc(I)cc1F)N1CC(O)([C@@H]2CCCCN2)C1 + CCN1C(C(=O)NC23CCC(C(=O)O)(CC2)CC3)C(c2cccc(Cl)c2F)C2(C(=O)Nc3cc(Cl)ccc32)C12CCCCC2	%	78.1
CNC(C)C(=O)NC1CN(S(=O)(=O)c2cccc(S(=O)(=O)N3CCC4CCC(C(=O)NC(c5ccccc5)c5ccccc5)N4C(=O)C(NC(=O)C(C)NC)C3)c2)CCC2CCC(C(=O)NC(c3ccccc3)c3ccccc3)N2C1=O (stereo not given) + CCN1C(C(=O)NC23CCC(C(=O)O)(CC2)CC3)C(c2cccc(Cl)c2F)C2(C(=O)Nc3cc(Cl)ccc32)C12CCCCC2	%	109

Shift focus to the following entry.
Record COc1c(OCCCN2CCOCC2)ccc2c3n(c(=NC(=O)c4cnc(N)nc4)nc12)CCN3 + CCN1C(C(=O)NC23CCC(C(=O)O)(CC2)CC3)C(c2cccc(Cl)c2F)C2(C(=O)Nc3cc(Cl)ccc32)C12CCCCC2 : what is its viability, T/C with 439559-082-T-J2-PDC complex spheroid growth?
93.2

----------
- Test system: 439559-082-T-J2-PDC complex spheroid growth
- assaySummary: Anticancer human tumor 439559-082-T-J2-PDC cell line growth inhibition [Asc];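 further: spheroids exposed to agents for 7 days starting day 3 after seeding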;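 on viability, T/C: percent of DMSO vehicle control viability with 100% = vehicle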
- assayContext: second compound 3 µM; first compound 0.1 µM; stronger effect = lower value
- Source text: Multicellular complex tumor spheroid response to apoptosis pathway targeting inhibitors Alrizomadlin, Pelcitoclax, and Dasminapant in combination with a variety of drugs and investigational agents in selected tumor cell lines […] Compounds. […] If the clinical Cmax for an agent had not been determined, the highest concentration tested was 10 microM. […]
measuredProperty: viability, T/C

compound	measuredProperty	result
CNC(C)C(=O)NC1CN(S(=O)(=O)c2cccc(S(=O)(=O)N3CCC4CCC(C(=O)NC(c5ccccc5)c5ccccc5)N4C(=O)C(NC(=O)C(C)NC)C3)c2)CCC2CCC(C(=O)NC(c3ccccc3)c3ccccc3)N2C1=O (configuration not stated) + CCN1C(C(=O)NC23CCC(C(=O)O)(CC2)CC3)C(c2cccc(Cl)c2F)C2(C(=O)Nc3cc(Cl)ccc32)C12CCCCC2	viability, T/C	93.1%

Here is another compound to look at.
// query viability, T/C value for entry O=C(c1ccc(F)c(F)c1Nc1ccc(I)cc1F)N1CC(O)([C@@H]2CCCCN2)C1 + CCN1C(C(=O)NC23CCC(C(=O)O)(CC2)CC3)C(c2cccc(Cl)c2F)C2(C(=O)Nc3cc(Cl)ccc32)C12CCCCC2
47%

----------
- Tested on: 439559-082-T-J2-PDC complex spheroid growth
- assaySummary: Anticancer human tumor 439559-082-T-J2-PDC cell line growth inhibition [Asc];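 further: spheroids exposed to agents for 7 days starting day 3 after seeding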
- assayContext: curve of first compound; second compound 0.1 µM
pIC50: −log10 of the molar value.
measuredProperty: pIC50

Okay, here is my list. What is pIC50 for each of these?
1. CCN1C(C(=O)NC23CCC(C(=O)O)(CC2)CC3)C(c2cccc(Cl)c2F)C2(C(=O)Nc3cc(Cl)ccc32)C12CCCCC2 (stereo not drawn) + Cc1c(S(C)(=O)=O)c(-c2cc(F)cc(N3CCN(c4ccc(NS(=O)(=O)c5ccc(NC(CCN6CCC(C(=O)OCCCP(=O)(O)O)CC6)CSc6ccccc6)c(S(=O)(=O)C(F)(F)F)c5)cc4)CC3)c2)c(-c2ccc(Cl)cc2)n1C(C)C
2. O=C(c1cc(Cc2n[nH]c(=O)c3ccccc23)ccc1F)N1CCN(C(=O)C2CC2)CC1 + Cc1c(S(C)(=O)=O)c(-c2cc(F)cc(N3CCN(c4ccc(NS(=O)(=O)c5ccc(NC(CCN6CCC(C(=O)OCCCP(=O)(O)O)CC6)CSc6ccccc6)c(S(=O)(=O)C(F)(F)F)c5)cc4)CC3)c2)c(-c2ccc(Cl)cc2)n1C(C)C
3. O=C(c1ccc(F)c(F)c1Nc1ccc(I)cc1F)N1CC(O)([C@@H]2CCCCN2)C1 + Cc1c(S(C)(=O)=O)c(-c2cc(F)cc(N3CCN(c4ccc(NS(=O)(=O)c5ccc(NC(CCN6CCC(C(=O)OCCCP(=O)(O)O)CC6)CSc6ccccc6)c(S(=O)(=O)C(F)(F)F)c5)cc4)CC3)c2)c(-c2ccc(Cl)cc2)n1C(C)C

1: < 5.52; 2: < 5.00; 3: 6.70

----------
- System: 439559-082-T-J2-PDC complex spheroid growth
- assaySummary: Anticancer human tumor 439559-082-T-J2-PDC cell line growth inhibition [Asc];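 further: spheroids exposed to agents for 7 days starting day 3 after seeding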;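 on viability, T/C: percent of DMSO vehicle control viability with 100% = vehicle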
- assayContext: second compound 0.1 µM; first compound 0.0316 µM; stronger effect = lower value
For each entry below, report its viability, T/C value.
Give bare numbers, in %.

// below: answered compounds
compound	viability, T/C, %
C=CC(=O)N1CCN(c2nc(=O)n(-c3c(C)ccnc3C(C)C)c3nc(-c4c(O)cccc4F)c(F)cc23)C(C)C1 (stereo unspecified) + CNC(C)C(=O)NC1CN(S(=O)(=O)c2cccc(S(=O)(=O)N3CCC4CCC(C(=O)NC(c5ccccc5)c5ccccc5)N4C(=O)C(NC(=O)C(C)NC)C3)c2)CCC2CCC(C(=O)NC(c3ccccc3)c3ccccc3)N2C1=O	111
C=C(F)C(=O)N1CCN(c2nc(OCC3CCCN3C)nc3c2CCN(c2cccc4cccc(Cl)c24)C3)CC1CC#N (stereo unspecified) + CNC(C)C(=O)NC1CN(S(=O)(=O)c2cccc(S(=O)(=O)N3CCC4CCC(C(=O)NC(c5ccccc5)c5ccccc5)N4C(=O)C(NC(=O)C(C)NC)C3)c2)CCC2CCC(C(=O)NC(c3ccccc3)c3ccccc3)N2C1=O	96.1
CNC(C)C(=O)NC1CN(S(=O)(=O)c2cccc(S(=O)(=O)N3CCC4CCC(C(=O)NC(c5ccccc5)c5ccccc5)N4C(=O)C(NC(=O)C(C)NC)C3)c2)CCC2CCC(C(=O)NC(c3ccccc3)c3ccccc3)N2C1=O (stereo unspecified) + Cc1c(S(C)(=O)=O)c(-c2cc(F)cc(N3CCN(c4ccc(NS(=O)(=O)c5ccc(NC(CCN6CCC(C(=O)OCCCP(=O)(O)O)CC6)CSc6ccccc6)c(S(=O)(=O)C(F)(F)F)c5)cc4)CC3)c2)c(-c2ccc(Cl)cc2)n1C(C)C	110
O=C(c1cc(Cc2n[nH]c(=O)c3ccccc23)ccc1F)N1CCN(C(=O)C2CC2)CC1 + CNC(C)C(=O)NC1CN(S(=O)(=O)c2cccc(S(=O)(=O)N3CCC4CCC(C(=O)NC(c5ccccc5)c5ccccc5)N4C(=O)C(NC(=O)C(C)NC)C3)c2)CCC2CCC(C(=O)NC(c3ccccc3)c3ccccc3)N2C1=O	99.8
Cn1ncnc1[C@H]1c2n[nH]c(=O)c3cc(F)cc(c23)N[C@@H]1c1ccc(F)cc1 + CNC(C)C(=O)NC1CN(S(=O)(=O)c2cccc(S(=O)(=O)N3CCC4CCC(C(=O)NC(c5ccccc5)c5ccccc5)N4C(=O)C(NC(=O)C(C)NC)C3)c2)CCC2CCC(C(=O)NC(c3ccccc3)c3ccccc3)N2C1=O	103

In the following, a different compound is considered.
Fill in: viability, T/C of C=C(F)C(=O)N1CCN(c2nc(OCC3CCCN3C)nc3c2CCN(c2cccc4cccc(Cl)c24)C3)CC1CC#N (stereo unspecified) + Cc1c(S(C)(=O)=O)c(-c2cc(F)cc(N3CCN(c4ccc(NS(=O)(=O)c5ccc(NC(CCN6CCC(C(=O)OCCCP(=O)(O)O)CC6)CSc6ccccc6)c(S(=O)(=O)C(F)(F)F)c5)cc4)CC3)c2)c(-c2ccc(Cl)cc2)n1C(C)C is ___
96.8
